# test_method_notes: soluble fraction after stress (log2 fold change); higher = more stays soluble; pooled small domains, quantitative proteomics;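 also: 20 min heating vs room temperature control held 20 min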
# setup_conditions: stress: 75 degC
Each entry below carries its recorded soluble fraction (log2).

primary_sequence: HMGWTTPAGIAVGMDKSVLQDAYGKEDDTFQDKGILYYQYFVHPSRMSGLSFGIKNDKIVSITAYMD
soluble fraction (log2): -2.02
//
primary_sequence: HMNNDFIVKSTDSHKVNLRSQPDTHADIIKRLDDHTIVEKLKTVRKNWYLVQLKDTTTQGYVHKSQLERV
soluble fraction (log2): -0.357
//
primary_sequence: HMDKPIFTLRENEVLYWASMGKTYAEIATIVGISVRTVKFHMGNVVSKLGVSNARQAIRLGVELDLITPMQ
soluble fraction (log2): -2.03
//
primary_sequence: HMSEQIALQFAKAKQHHTGIALKGIEALELRYKGYTGKEIAALYHTSPKSVFSWISRAKQKLRQN
soluble fraction (log2): -0.272
//
primary_sequence: HMPLDPFVVDALRDEIINTIKQHEPRVDLQKVQVQPIYTQNRVNISVQYKIVGLPIVEDITFVLQRP
soluble fraction (log2): 0.39
//
primary_sequence: HMEVKRANRKERFLEALPYQFSRQDYLNIADKNKIPHKTAEGYITKFVDAGLIHREAHNNYTNPTKA
soluble fraction (log2): -0.0913
//
primary_sequence: HMVKNTIHVDLKGEVNKPGVYEVEEGTIVNDLITLANGFTKNAYQDNINLSKKLTDEMVIVVSKKGS
soluble fraction (log2): 0.476
//
primary_sequence: HMDTSAHEVLSAIRSIIEDEDKRHPLSDEAITSRLSQQGYDIARRTVAKYRERLGLPVARLRRE
soluble fraction (log2): -0.26

* * *

# test_method_notes: soluble fraction after stress (log2 fold change); higher = more stays soluble; pooled small domains, quantitative proteomics
# setup_conditions: stress: 75 degC

primary_sequence: HMLDVNLIFSRPGFSLSAAFTLHAGGITVLRGDSGSGKTTLADLLSGAIAPQKGRILSDGDIWFDAASGIN
soluble fraction (log2): 0.108
--
primary_sequence: HMNLGETIYNLRKEKKLSQGDLAEQLSVSRQSVSKWENNSAVPDLDKLVKLSTIFGVSLDELVKG
soluble fraction (log2): -0.0337
--
primary_sequence: HMKTGAKLKNLRKMKKLSQEEVAKVLNLSYSTLSRWENDTRIPTYEDLFKLGQFYGVSVDYLSDPN
soluble fraction (log2): -0.98
--
primary_sequence: HMYLELVTKEGGSFDEPDYWGRRKLAYEIAGKTEGNYVVVKYTAEPATSDELDRVLNLNESVIRTKILRK
soluble fraction (log2): 0.00439

* * *

# test_method_notes: soluble fraction after stress (log2 fold change); higher = more stays soluble; pooled small domains, quantitative proteomics
# setup_conditions: stress: 75 degC

primary_sequence: HMNEIDLEAAKRIALQNAGVESADAAFTKAQLDYDDGVAEYEIEFVAGSTKYEYEISAANGTVLKSSKESV
soluble fraction (log2): -0.0387

primary_sequence: HMVQARDQNIEEGRQLVLRELDRLDLVNESLTDVAADMNMKSVEDMYAAIGAGDLRVGQVVHAVLKRAD
soluble fraction (log2): 0.0164

primary_sequence: HMGMVKLNEEYLEKVKKHRKELHITQLQISKKLGWSLSRYQRFESGFYKEIEDDAPKKIKEEFGIDYSLL
soluble fraction (log2): -0.726

primary_sequence: HMKLPNSFGSIQKLSGNRRKPYRVVKTIGWDENGKQIRKTLGYYETRAKALQELALFNEKPYD
soluble fraction (log2): -1.72

* * *

# test_method_notes: soluble fraction after stress (log2 fold change); higher = more stays soluble; pooled small domains, quantitative proteomics
# setup_conditions: stress: 75 degC

primary_sequence: HMTPVFGEEETVLQAAVRGIISDTDQWTMEAEAKSMLNQLGFSDYEEKMAHMSGGQKKRVALVNALLTP
soluble fraction (log2): 0.116
--
primary_sequence: HMYQPLYEQIKRMLTQSLIDGEWKAGEMIPSEMELAARFKVSQGTVRKAIDELVSENILMRRQGKGTFVH
soluble fraction (log2): -0.962
--
primary_sequence: HMQPDPAFVAWVDANPWYKENRTLRALVHDYAEEVKRQEPALIGTAFLDRVKQLVQSEHPELFD
soluble fraction (log2): -0.234
--
primary_sequence: HMHIVQEGDSLYGIARQYRITVEELRSLNALETADVIVPYQKLYV
soluble fraction (log2): -0.851
--
primary_sequence: HMGLTYEQILTDVQRFVTQNHADTLSNEGNPEEARKLLKDYILQYVQNRSYHVDGQTTEELVDSLYED
soluble fraction (log2): -0.231
--
primary_sequence: HMGIPIEAYHESLHRHYIDLWELLDTGKETLIDAEGNEVDKIHLLNAIRFNVNGMLHELLKE
soluble fraction (log2): -1.91
--
primary_sequence: HMSAAYVYVTGTRVNQRDGPSTFDRVMGVLVEGTRVQLLRDQGQWAQIRSDLGTGWLSSGFLSRNG
soluble fraction (log2): -1.88
--
primary_sequence: HMIDDPTAVILRLVSEKQVIRRDDVVKALSVTPQKAYRLLKTMTTGGLLTRSGARRTTVYGLPDARER
soluble fraction (log2): 0.223
--
primary_sequence: HMHSVIALTIPADYAGLRLDQALAKLLPNWSRSRLQTWIAENRVILDGQITTIKQKVWGNELIQISPQD
soluble fraction (log2): -1.67
--
primary_sequence: HMYTEIDDVKDLLSKIPSVNKLTTADRGMVQAARNAYDALDEDQKLYITIADVEKFNAAVEWMEEH
soluble fraction (log2): -0.186
--
primary_sequence: HMRAFTPSEAQVAHARRVMEAFWQHQREGHGAFALDGKMVDAPIVKAAARVLARAGLQDPNHPIHLA
soluble fraction (log2): -0.332
--
primary_sequence: HMLKDGPIGAYADSVIRDIIEKMERFSKEHINVDMLKIHEKIMLIDEPIIRMALLDEFHRVSHDN
soluble fraction (log2): -2.47
--
primary_sequence: HMSSRLEIEITSKIDDLSHTWRAVGAKQPKGNIKSSLLPSGVKVGETFRVEADFLLDGIEIVSVLPP
soluble fraction (log2): -1.86
--
primary_sequence: HMRDQARQFFIDTWAKFQRHDALTPLEEKTAAIIALHPEYHRVLQNPESFITTDWRPESGDINPFMHL
soluble fraction (log2): -2.02
--
primary_sequence: HMSFNISPTKKLILELIMNGTAAVEAIAVKAGISKGMAYNHLRELRSMGYITDEGGYKITDSGRLAV
soluble fraction (log2): -2.39
--
primary_sequence: HMELVIGESLAVELLRPGKEDGQALGYLPDGSMVVVNNGRAFVGKRVTAEIIGVIRSAGGKMVFSNLLGE
soluble fraction (log2): -3.36
--
primary_sequence: HMRLSPTMVETLIAMLNRNAYPAYENNSRTFASLEERGLIQPDIEGNWSLTDTGHQTALKLLK
soluble fraction (log2): 0.463

* * *

# test_method_notes: soluble fraction after stress (log2 fold change); higher = more stays soluble; pooled small domains, quantitative proteomics
# setup_conditions: stress: 75 degC

primary_sequence: HMQRAEQLPAELAAVFRAETEAWGFFERQPPGYQRVAIHWVASAKQEATRLRRLAKLIEESAAGRR
soluble fraction (log2): -1.61
--
primary_sequence: HMSRVFSPSELEIRHAQDVFQALEEAKRQGKGAVSLNGKMIDAPIVARAKLVLEAAAAIYGED
soluble fraction (log2): -0.379
--
primary_sequence: HMTDDALIGKTAQVTVAIKPGSVGQITARVGDERVERLARASADAEIAAGSLVTIKSIAGDSVIVAPE
soluble fraction (log2): 0.317
--
primary_sequence: HMTTLAADFNSDGRVDIGDLSILAGNWGKSRTNEVDFNKYGDADYNGRIDIIDLSILATQFGQTDNSN
soluble fraction (log2): 0.321
--
primary_sequence: HMVEVPNVSNLTLEQAENKLIQQGLQVKLEGQGEKVVAQIPQPGAVVNKKSTVILF
soluble fraction (log2): 0.258
--
primary_sequence: HMGMTTSILDDVIGMGPKRKKALLKAFGSFGALRNATLEEIKQTHTVPEQVAEDVYAVLVQYNSKSE
soluble fraction (log2): -0.681
--
primary_sequence: HMDRIISTPMPGRVVKIPVTEGEPVAKGATVITISAMKMESEYKSPIDGIVKKIHVSEGDNINANQPLIEI
soluble fraction (log2): -0.51
--
primary_sequence: HMRGLVPEIVGTLEGEIRAGTLAVGQKLPTEAEIMARFDVSRTVVREALSRLQASDLVETRHGIGTFVSAR
soluble fraction (log2): -0.647
--
primary_sequence: HMKVGEIIKAKREELKIPLVNFAKELDISQGYLSQIENGIKTNPNLDIILKIIHRLDIDLAMLL
soluble fraction (log2): -1.93
--
primary_sequence: HMLRNDEAVMLGRRLLNKHLQAFSVQIKDISHQRIHDLLDELELESLDHLLDDIGLGNRSVFLVAQKLLQ
soluble fraction (log2): -1.48
--
primary_sequence: HMDPVILDINSVKALLGISNKADFMAELSRLVVTEGDKKMIIPLAKEVGIDNVAVYKRNEIENISNYK
soluble fraction (log2): -0.129
--
primary_sequence: HMFASSADGVEGLKTNPIFASTKEKSDAGKLLYTRYLAIGIFRMLELAKATDPKALEALVEAGG
soluble fraction (log2): 0.259
--
primary_sequence: HMTIRPEDVELVPAEDGYMQGDVVSNIFKGVHYELEVKANGYDWMVHTTKYVEVGSHVGIKVIPFNIQV
soluble fraction (log2): 0.322
--
primary_sequence: HMTKRTVKSVARKIADFNRERHRMPTYEEMLTLLAVRSKSVVHFWMNKLLQEGILEKDESGHLTFV
soluble fraction (log2): -0.179
--
primary_sequence: HMDEAETELIRRMVSEHPPTTKRERDIVQMRLRGYLFVEIGEAYGISFQRAAQIYNAAVEKIKEYWD
soluble fraction (log2): -0.242
--
primary_sequence: HMFMPGTIIKQFRELRNYSQDYVSRKMGISQNAYSKIENNITQLTVTHVKQLSSILDVPIVELLR
soluble fraction (log2): -3.71
--
primary_sequence: HMAHSWEAIRVKLQQIIDEEDKTKPLNDDQIKEKLAEAGIPNLARRTVAKYRKLLNIPTARFRKR
soluble fraction (log2): -0.993
--
primary_sequence: HMKRMSKKQLSAVIEKYFSSQPGVTLTLKDIFRNLHLDTHPLKMIALDILEEMSWDDVIMKVSDTSYALNT
soluble fraction (log2): 0.194
--
primary_sequence: HMFERIYVFSRDGDIIELPKGSTVLDFAYHVHTHVGNRAQAARVNKRYVPLTYQLKTGEQVEIIIS
soluble fraction (log2): -1.44
--
primary_sequence: HMKYRLLGENLQTIRKARGMKQQELADQIGINMQSLSKIERGLNYPTFETLEKIMNALGITPNELLSG
soluble fraction (log2): -0.82
--
primary_sequence: HMVQVPSLVGISEIEAKTLLTQAGFFVKIVEVFDANQPVGIVLAQAPSAGESRIIGSPVTITVNKAQ
soluble fraction (log2): -2.41
--
primary_sequence: HMKIKLQATEQQRKTLDELYVQLKKLEPTSKEDLSLLYRLENPHLVSKQEAQGLISIAIGRVGSLAIEQQ
soluble fraction (log2): -0.44
--
primary_sequence: HMNEIEIHINKLFGKISDSKRKQELMQEITQNLNEKVSDLVSQGQTREQAVKKAIEDFGDIDDLKDELDN
soluble fraction (log2): 0.312
--
primary_sequence: HMEKRLDYTFGLNKEQLLYLTKSIKDGDFYNVSFIDGTEKKLNRVGSTKEVHKYVNFLMTNDGIVKK
soluble fraction (log2): -0.389
--
primary_sequence: HMGNIKVPSVMGMTLEGAEKVAKDNGAVIEVLEYKESTEEDGTIIEQSPKADMTVATLEKISVVISGK
soluble fraction (log2): 0.161
--
primary_sequence: HMGGEPKALLFAGVETREMAEITQRLEAADIPYEIREDGGSIYVARSEVFNARMMLSADGLPS
soluble fraction (log2): -0.455
--
primary_sequence: HMEEPEFEPYVVRLTAIALNVRTGPGTQYPVAMVIRGGGAFTIVAEENGFGLLKSGAGWIMLQHTERV
soluble fraction (log2): -2.61
--
primary_sequence: HMDSPVEEWANRGLAYDPSLVTETMAKLYAKQGQIGLARKAFKRLALIYPEKSVYFAFQLKKLSNN
soluble fraction (log2): -2.01
--
primary_sequence: HMLGERIRTLRKEIGMSVTELARRVKTSPSHISEIERGEKMPSLNLLVKIAKELKTSIDYLTGLVG
soluble fraction (log2): -0.498
--
primary_sequence: HMGRTGTVVVSPSLNVRTGPWGEIIGSLYNGNKVEIIGSSGDWYQISFGGKTAYVHSDYVVDGG
soluble fraction (log2): -1.26
--
primary_sequence: HMQVSEQVQRLLDALENDTLTTKELMDRLGLKHRPTFRKNYLLPSMKLGLVEMTIPDKPNSSRQKYRRRQ
soluble fraction (log2): -0.566
--
primary_sequence: HMVTTLLIINVAGKVKNPGVYQLPPGSRVVDALEAAGQQLKGVDISDINLARVLVDGEQILIGSN
soluble fraction (log2): -2.5
--
primary_sequence: HMDAYSYFIRTYPLVDDPLIGDIRRIFAETHDGNPAGDADVRHILWRLLFERELYPTLDEATADWY
soluble fraction (log2): -2.39
